Tested on: MS2 coat protein
Assay: apparent Kd, MS2 coat protein; higher = weaker binding; RNA-MaP array
Conditions: designed as: OFF switch for flavin mononucleotide; no ligand
The sequences listed here are annotated with their apparent Kd.
Answer with the number, then the unit.

Worked examples follow.
# SEQUENCE_CODE, TESTED_ON, apparent Kd
data = [
    ("GCGGGACAUGAGGAUCACCCAUGUGAGGAUAUGUGCAGUGGCAGGGACAGUUAAAAGUACAGAAGGCACAGCCC", "MS2 coat protein", "19.7 nM"),
    ("UAAUACCAUACAGGAUAUACUUAGCCCAAAACAUGAGGAUCACCCAUGUAUUGGAGUCCUCGGCGGUAGAAGGGUACAGAAAGA", "MS2 coat protein", "19.5 nM"),
]

Prompt: apparent Kd for UGCCUAUACCAGAAGGGCGUACGGGAAAACAUGAGGAUCACCCAUGUGAGAUCAUCAUCGCUAGCGCAGGAUAUGGAAGUUCGG ?
Response: 25 nM

Prompt: Which apparent Kd is reported for this sequence? GGAAUGUCGUAGGAUAUAUGAUCUGUAAGGUAGAUAGAAGGACGAACAUGAGGAUCACCCAUGUGGAGGAUGUU
Response: 15.5 nM

Prompt: So what does the record say about apparent Kd for UCAACAUGAGGAUCACCCAUGUCAUCGGCGUUCUCAGACACUAGAAGGAACAGGCGUAUCUGCGGUUAGGAUAUAGACACACAU ?
Response: 31.3 nM

###

System: MS2 coat protein
Test: apparent Kd, MS2 coat protein; higher = weaker binding; RNA-MaP array; theophylline 2 mM where present
Conditions: designed as: OFF switch for theophylline; no ligand
MEASURED_ENDPOINT: apparent Kd (µM)
Give a bare numeral; the unit µM is implied.

Illustrative cases are given below, each with its answer.
# SEQUENCE_CODE, UNIT_SPEC, apparent Kd
measured = [
    ("UUUUAAAGCAUGGCGUAUCGGAAAACCGAUACCAGUACAGAAAUGUACCCUUGGCAGCGGCAUUUUACAUGAGGAUCACCCAUGU", "µM", 0.014),
    ("AACUGGACCCGUGAUACCAGAGACAUGAGGAUCACCCAUGUACAUGAGGAUCACCCAUGUCUCCCUUGGCAGCACCGCAGGGAGC", "µM", 0.0975),
    ("UUGGUAGGACAGCUCAUAUAAGCAUGUGAUACCAGCUAGAAAACUAGCCCUUGGCAGCACUUUACAUGAGGAUCACCCAUGUCCC", "µM", 0.165),
]

Prompt: Dear colleague, I am looking for the recorded apparent Kd of the following sequence: CUGCUACAUGAGGAUCACCCAUGUGGAGAUACCAGCCUGAACGAUGGCCCUUGGCAGCUCUUAGCUGGUGAUCAUAUAUUUCAGA
Response: 0.0305

###

Test system: MS2 coat protein
Test: apparent Kd, MS2 coat protein; higher = weaker binding; RNA-MaP array; tryptophan 2.4 mM where present
Conditions: designed as: OFF switch for tryptophan; no ligand
Below, each of the sequences is paired with its reported apparent Kd value.
# number only, unit nM dropped from output

Solved entries:
# SEQUENCE_CODE, apparent Kd, nM
rows = [
    ("UCGGGCAUAGCGGCCGCCACUGUUUGGCGUGCGGAUGACGGAACAUGAGGAUCACCCAUGUUGUUUAGGACCGGGCUUGCGUCGU", 13.2),
    ("GAGCGCGUGGACUGGCGUGCUCCGCUCCGUCGAGGACCGGUACGGCCGCCACUCGACAUGAGGAUCACCCAUGUGUGCGCUCGCG", 51.5),
    ("UAAUCCGGUCCUCGAUAAUCCUCAUGUAAACGAGGACCGGUACGGCCGCCACUCGAUAACAUGAGGAUCACCCAUGUAAUAAUAA", 89.5),
    ("AGAUUCGACACGGCCGCCACUUGGAGUGGCUGCUAGCAUGUUACACAUGAGGAUCACCCAUGUCUAAGGACCGGGUGUUGAGUCU", 41.1),
    ("ACGCCCGCCUCACAUGAGGAUCACCCAUGUCGAGGACCGGUACGGCCGCCACUCGUCGUCGGUAAUACGGGCGUUGAAUAAUAUA", 11.5),
    ("GGGACUAGAUCGGCCGCCACUGAUGGGACAUGAGGAUCACCCAUGUACGAAGUGAUCCAAUAAAUCAGGACCGGGAUCACUUGUA", 125),
    ("AUAAUUGGGUUAAUUAGUUUUAGGUCCAGUCGAGGACCGGUACGGCCGCCACUCGUUCCGAGAUACAUGAGGAUCACCCAUGUUA", 32.9),
    ("GGCACAUAGUCGGCCGCCACUAGGGUGUAGUGGAAUAACAUGAGGAUCACCCAUGUAUUUGGGACUAGGACCGGGACUAUGUGCC", 25.2),
    ("UAACAUGAGGAUCACCCAUGUAUACUAAGUCGAGGACCGGUACGGCCGCCACUCGAAAUUGAAGAAUUGGCGGUAAAUGUAAGUA", 12.2),
    ("AGAUUCGACACGGCCGCCACUUUCAGUGGCUGGUGUCAUGGUGCACAUGAGGAUCACCCAUGUGGAAGGACCGGGUGUUGAGUCU", 12.2),
]

// moving on: another record for apparent Kd
Prompt: Entry GAGUAGAGGACGGCCGCCACUAAACAUGAGGAUCACCCAUGUCGUGAUCCGUUACCUAGAGUAGAUAGGACCGGGUCAUAUAGUC : reported apparent Kd = ?
Response: 26.4
